- Tested on: Candida albicans A-26
- procedure-text: Agar plate disc diffusion test, MIC per disc
- Format: cell-based
- applied-conditions: 0.1M sodium borate, pH 7.5, 24 hours, 30° C.
Starred links: 1 amine or outer side, 2 acyl side, 3 side chain; linkers in the order of their positions; H or OH if unused. Positions of bridges follow the written chain, without caps; N, C: chain ends. Non-standard residues stand in square brackets, D forms with d. Residues, ends and D or L forms follow the SMILES beside them. *: point of attachment. Orn(4R-OH,5R-OH) = O=C([C@H](C[C@@H](O)[C@@H](O)N[*:3])N[*:1])[*:2]; hTyr(3S-OH,4S-OH) = N[C@H](C(=O)O)[C@H](O)[C@@H](O)c1ccc(O)cc1; Benzoyl(4-OC10H21) = CCCCCCCCCCOc1ccc(C(=O)*)cc1; Pro(3S-OH,4S-Me) = C[C@H]1CN[C@H](C(=O)O)[C@H]1O; X1 = CCCCCCCCCCCCSc1ccc(C(=O)*)cc1; Hyp = O=C(O)[C@@H]1C[C@@H](O)CN1; X29 = CCCCCCCOc1ccc(CCC(=O)*)cc1; X13 = CCCCCCCCOc1cccc(C(=O)*)c1; X14 = CCCCCCOc1ccc(C(=O)*)cc1
measurement-name: MIC (μg/disc)
Numbers only, in μg/disc.

CCCCCCCCOc1cccc(C(=O)N[C@H]2C[C@@H](O)[C@@H](O)NC(=O)[C@@H]3[C@@H](O)[C@@H](C)CN3C(=O)[C@H]([C@@H](C)O)NC(=O)[C@H]([C@H](O)[C@@H](O)c3ccc(O)cc3)NC(=O)[C@@H]3C[C@@H](O)CN3C(=O)[C@H]([C@@H](C)O)NC2=O)c1 [drawing 127] (X13-[Orn(4R-OH,5R-OH)]T[Hyp][hTyr(3S-OH,4S-OH)]T[Pro(3S-OH,4S-Me)]; lactam 1-C) : 10
CCCCCCCOc1ccc(CCC(=O)N[C@H]2C[C@@H](O)[C@@H](O)NC(=O)[C@@H]3[C@@H](O)[C@@H](C)CN3C(=O)[C@H]([C@@H](C)O)NC(=O)[C@H]([C@H](O)[C@@H](O)c3ccc(O)cc3)NC(=O)[C@@H]3C[C@@H](O)CN3C(=O)[C@H]([C@@H](C)O)NC2=O)cc1 (X29-[Orn(4R-OH,5R-OH)]T[Hyp][hTyr(3S-OH,4S-OH)]T[Pro(3S-OH,4S-Me)]; lactam 1-C) : 0.625
CCCCCCCCCCOc1ccc(C(=O)N[C@H]2C[C@@H](O)[C@@H](O)NC(=O)[C@@H]3[C@@H](O)[C@@H](C)CN3C(=O)[C@H]([C@@H](C)O)NC(=O)[C@H]([C@H](O)[C@@H](O)c3ccc(O)cc3)NC(=O)[C@@H]3C[C@@H](O)CN3C(=O)[C@H]([C@@H](C)O)NC2=O)cc1 [drawing 116] ({Benzoyl(4-OC10H21)}-[Orn(4R-OH,5R-OH)]T[Hyp][hTyr(3S-OH,4S-OH)]T[Pro(3S-OH,4S-Me)]; lactam 1-C) : 0.156
CCCCCCCCCCCCSc1ccc(C(=O)N[C@H]2C[C@@H](O)[C@@H](O)NC(=O)[C@@H]3[C@@H](O)[C@@H](C)CN3C(=O)[C@H]([C@@H](C)O)NC(=O)[C@H]([C@H](O)[C@@H](O)c3ccc(O)cc3)NC(=O)[C@@H]3C[C@@H](O)CN3C(=O)[C@H]([C@@H](C)O)NC2=O)cc1 [drawing 121] (X1-[Orn(4R-OH,5R-OH)]T[Hyp][hTyr(3S-OH,4S-OH)]T[Pro(3S-OH,4S-Me)]; lactam 1-C) : 2.5

# input What measured MIC goes with CCCCCCOc1ccc(C(=O)N[C@H]2C[C@@H](O)[C@@H](O)NC(=O)[C@@H]3[C@@H](O)[C@@H](C)CN3C(=O)[C@H]([C@@H](C)O)NC(=O)[C@H]([C@H](O)[C@@H](O)c3ccc(O)cc3)NC(=O)[C@@H]3C[C@@H](O)CN3C(=O)[C@H]([C@@H](C)O)NC2=O)cc1 [drawing 131] (X14-[Orn(4R-OH,5R-OH)]T[Hyp][hTyr(3S-OH,4S-OH)]T[Pro(3S-OH,4S-Me)]; lactam 1-C) ?
# output 2.5
